Assay: in vivo
Conditions: chlorocebus sabaeus, iv, 10 mg/kg
valueType: Cmax at 0.5 h (µM)
Provide the reading as a plain figure in µM.

Just so you know, measured Cmax at 0.5 h for CCC(CC)COC(=O)[C@H](C)N[P@](=O)(OC[C@H]1O[C@@](C#N)(c2ccc3c(N)ncnn23)[C@H](O)[C@@H]1O)Oc1ccccc1 (stereo in doubt) came out at 12.6

###

Test: in vitro
Settings: human, HEp-2 cells, Ratio CC50/EC50
valueType: selectivity ratio
The reply should be a number, written without any unit.

compound | selectivity ratio
C[C@H](NP(=O)(OC[C@H]1O[C@@](C#N)(c2ccc3c(N)ncnn23)[C@H](O)[C@@H]1O)Oc1ccccc1)C(=O)OCC(C)(C)C (some centres undefined) | 220
C[C@H](NP(=O)(OC[C@H]1O[C@@](C#N)(c2ccc3c(N)ncnn23)[C@H](O)[C@@H]1O)Oc1ccccc1)C(=O)OC1CCC1 (some centres undefined) | 453
CCC(CC)OC(=O)[C@H](C)NP(=O)(OC[C@H]1O[C@@](C#N)(c2ccc3c(N)ncnn23)[C@H](O)[C@@H]1O)Oc1ccccc1 (some centres undefined) | 323

Just so you know, measured selectivity ratio for C[C@H](NP(=O)(OC[C@H]1O[C@@](C#N)(c2ccc3c(N)ncnn23)[C@H](O)[C@@H]1O)Oc1ccccc1)C(=O)OC1CCCC1 (some centres undefined) came out at 471

###

Overview of reported EC50 across a group of compounds:
System: Hepatitis C virus
Assay: microbe, parasite or virus in culture
Conditions: subtype 1b, Huh-7, 72 h

Just so you know, measured EC50 for `Nc1ncnn2c([C@@H]3O[C@H](CO)[C@@H](O)[C@H]3O)ccc12` came out at 0.0035 µM

Just so you know, measured EC50 for `C#C[C@@]1(c2ccc3c(N)ncnn23)O[C@H](CO)[C@@H](O)[C@H]1O` came out at > 89 µM

Just so you know, measured EC50 for `C[C@@]1(O)[C@H](O)[C@@H](CO)O[C@@]1(C#N)c1ccc2c(N)ncnn12` came out at > 89 µM

###

Assay: in vitro
Settings: human, MT4 cells
valueType: CC50 at 120 h

Just so you know, measured CC50 at 120 h for `Nc1ncnn2c([C@@H]3O[C@H](CO)[C@@H](O)[C@H]3O)ccc12` came out at < 0.01 µM

Just so you know, measured CC50 at 120 h for `C[C@@]1(O)[C@H](O)[C@@H](CO)O[C@@]1(C#N)c1ccc2c(N)ncnn12` came out at > 200 µM

Just so you know, measured CC50 at 120 h for `C[C@@]1(c2ccc3c(N)ncnn23)O[C@H](CO)[C@@H](O)[C@H]1O` came out at 4.5 µM

Just so you know, measured CC50 at 120 h for `N#C[C@@]1(c2ccc3c(N)ncnn23)O[C@H](CO)[C@@H](O)[C@H]1O` came out at > 50 µM

Just so you know, measured CC50 at 120 h for `C#C[C@@]1(c2ccc3c(N)ncnn23)O[C@H](CO)[C@@H](O)[C@H]1O` came out at > 50 µM

###

Test: cells
Settings: Homo sapiens, Primary bronchial epithelial cell, 48 h
Overview of reported IC50 across a group of molecules:
Provide the reading as a plain figure in nM.

molecule | measurementUnit | measurement
N#C[C@@]1(c2ccc3c(N)ncnn23)O[C@H](CO)[C@@H](O)[C@H]1O | nM | 220

Just so you know, measured IC50 for CCC(CC)COC(=O)[C@H](C)N[P@](=O)(OC[C@H]1O[C@@](C#N)(c2ccc3c(N)ncnn23)[C@H](O)[C@@H]1O)Oc1ccccc1 (stereo in doubt) came out at 140

###

Assay: in vivo
Conditions: chlorocebus sabaeus, iv, 10 mg/kg
valueType: half-life at 0.5 h (min)
Provide the reading as a plain figure in min.

Just so you know, measured half-life at 0.5 h for CCC(CC)COC(=O)[C@H](C)N[P@](=O)(OC[C@H]1O[C@@](C#N)(c2ccc3c(N)ncnn23)[C@H](O)[C@@H]1O)Oc1ccccc1 (stereo in doubt) came out at 48

###

Test: in vitro
Settings: human, Huh-7 cells
Overview of reported CC50 at 72 h across a group of molecules:

Study these solved cases before continuing.
itemSmiles | CC50 at 72 h
C[C@@]1(c2ccc3c(N)ncnn23)O[C@H](CO)[C@@H](O)[C@H]1O | > 45 µM
C[C@@]1(O)[C@H](O)[C@@H](CO)O[C@@]1(C#N)c1ccc2c(N)ncnn12 | > 89 µM
C#C[C@@]1(c2ccc3c(N)ncnn23)O[C@H](CO)[C@@H](O)[C@H]1O | > 89 µM

Just so you know, measured CC50 at 72 h for `N#C[C@@]1(c2ccc3c(N)ncnn23)O[C@H](CO)[C@@H](O)[C@H]1O` came out at > 89 µM

###

Test: in vitro
Conditions: human, HEp-2 cells
valueType: CC50 (µM)
Provide the reading as a plain figure in µM.

itemSmiles | CC50 / µM
Nc1ncnn2c([C@@H]3O[C@H](CO)[C@@H](O)[C@H]3O)ccc12 | 0.036

Just so you know, measured CC50 for `CC(C)(C)C(=O)SCCOP(=O)(OCCSC(=O)C(C)(C)C)OC[C@H]1O[C@@](C#N)(c2ccc3c(N)ncnn23)[C@H](O)[C@@H]1O` came out at 8.7

###

Tested on: Respiratory syncytial virus
Details: primary bronchial epithelial cell
valueType: pEC50
// scale note: pEC50 = -log10(conc_M); give the bare number

Entry CCC(CC)COC(=O)[C@H](C)N[P@](=O)(OC[C@H]1O[C@@](C#N)(c2ccc3c(N)ncnn23)[C@H](O)[C@@H]1O)Oc1ccccc1 (stereo in doubt) , Respiratory syncytial virus data, pEC50 value: 7.31

###

Assay: in vivo
Conditions: cynomolgus monkey, iv, 10 mg/kg
valueType: half-life at 0.5 h (min)
Provide the reading as a plain figure in min.

Just so you know, measured half-life at 0.5 h for CCC(CC)COC(=O)[C@H](C)N[P@](=O)(OC[C@H]1O[C@@](C#N)(c2ccc3c(N)ncnn23)[C@H](O)[C@@H]1O)Oc1ccccc1 (stereo in doubt) came out at 24

###

Experiment: in vivo
Conditions: cynomolgus monkey, iv, 10 mg/kg
valueType: clearance at 0.5 h (mL/min/kg)
Provide the reading as a plain figure in mL/min/kg.

Just so you know, measured clearance at 0.5 h for CCC(CC)COC(=O)[C@H](C)N[P@](=O)(OC[C@H]1O[C@@](C#N)(c2ccc3c(N)ncnn23)[C@H](O)[C@@H]1O)Oc1ccccc1 (stereo in doubt) came out at 32

###

Assay: clinical
Conditions: human, in vivo, iv, 75 mg
valueType: Cmax at 1 h

Just so you know, measured Cmax at 1 h for CCC(CC)COC(=O)[C@H](C)N[P@](=O)(OC[C@H]1O[C@@](C#N)(c2ccc3c(N)ncnn23)[C@H](O)[C@@H]1O)Oc1ccccc1 (stereo in doubt) came out at < 1000 nM

###

Assay: clinical
Settings: human, in vivo, iv, 75 mg
valueType: Cmax at 0.5 h (µM)
Provide the reading as a plain figure in µM.

Just so you know, measured Cmax at 0.5 h for CCC(CC)COC(=O)[C@H](C)N[P@](=O)(OC[C@H]1O[C@@](C#N)(c2ccc3c(N)ncnn23)[C@H](O)[C@@H]1O)Oc1ccccc1 (stereo in doubt) came out at 5

###

Experiment: in vitro
Conditions: human, HEp-2 cells
Binary call on selectivity ratio with cut-off 1000: strictly below means rule met, and equality or higher means rule not met.

compound | category
C[C@H](NP(=O)(OC[C@H]1O[C@@](C#N)(c2ccc3c(N)ncnn23)[C@H](O)[C@@H]1O)Oc1ccccc1)C(=O)OC1CCCCCCC1 (stereo not given in full) | rule not met
CCC(CC)COC(=O)[C@H](C)NP(=O)(N[C@@H](C)C(=O)OCC(CC)CC)OC[C@H]1O[C@@](C#N)(c2ccc3c(N)ncnn23)[C@H](O)[C@@H]1O | rule met

Is selectivity ratio strictly under 1000 for the entry C[C@H](NP(=O)(OC[C@H]1O[C@@](C#N)(c2ccc3c(N)ncnn23)[C@H](O)[C@@H]1O)Oc1ccccc1)C(=O)OCC1CCC1 (stereo not given in full) ? rule met

Is selectivity ratio strictly under 1000 for the entry C[C@H](NP(=O)(OC[C@H]1O[C@@](C#N)(c2ccc3c(N)ncnn23)[C@H](O)[C@@H]1O)Oc1ccccc1)C(=O)OCC1CC1 (stereo not given in full) ? rule not met

Is selectivity ratio strictly under 1000 for the entry `CC(C)(C)C(=O)SCCOP(=O)(OCCSC(=O)C(C)(C)C)OC[C@H]1O[C@@](C#N)(c2ccc3c(N)ncnn23)[C@H](O)[C@@H]1O` ? rule met

###

Experiment: in vitro
Conditions: human, HEp-2 cells
Overview of reported CC50 across a group of molecules:

Study these solved cases before continuing.
molecule | measurement
CCOC(=O)[C@H](C)NP(=O)(OC[C@H]1O[C@@](C#N)(c2ccc3c(N)ncnn23)[C@H](O)[C@@H]1O)Oc1ccccc1 (some centres undefined) | > 73 µM
CCC(CC)OC(=O)[C@H](C)NP(=O)(OC[C@H]1O[C@@](C#N)(c2ccc3c(N)ncnn23)[C@H](O)[C@@H]1O)Oc1ccccc1 (some centres undefined) | > 100 µM
C[C@H](NP(=O)(OC[C@H]1O[C@@](C#N)(c2ccc3c(N)ncnn23)[C@H](O)[C@@H]1O)Oc1ccccc1)C(=O)OCC1CC1 (some centres undefined) | 50 µM

Switching to the query record.
Just so you know, measured CC50 for C[C@H](NP(=O)(OC[C@H]1O[C@@](C#N)(c2ccc3c(N)ncnn23)[C@H](O)[C@@H]1O)Oc1ccccc1)C(=O)OC1CCC1 (some centres undefined) came out at 34 µM
